Source: ChEMBL document CHEMBL2010665

- Study Target: Nitric oxide synthase, inducible (Homo sapiens, UniProt P35228)
- Sequence (P35228 whole entry): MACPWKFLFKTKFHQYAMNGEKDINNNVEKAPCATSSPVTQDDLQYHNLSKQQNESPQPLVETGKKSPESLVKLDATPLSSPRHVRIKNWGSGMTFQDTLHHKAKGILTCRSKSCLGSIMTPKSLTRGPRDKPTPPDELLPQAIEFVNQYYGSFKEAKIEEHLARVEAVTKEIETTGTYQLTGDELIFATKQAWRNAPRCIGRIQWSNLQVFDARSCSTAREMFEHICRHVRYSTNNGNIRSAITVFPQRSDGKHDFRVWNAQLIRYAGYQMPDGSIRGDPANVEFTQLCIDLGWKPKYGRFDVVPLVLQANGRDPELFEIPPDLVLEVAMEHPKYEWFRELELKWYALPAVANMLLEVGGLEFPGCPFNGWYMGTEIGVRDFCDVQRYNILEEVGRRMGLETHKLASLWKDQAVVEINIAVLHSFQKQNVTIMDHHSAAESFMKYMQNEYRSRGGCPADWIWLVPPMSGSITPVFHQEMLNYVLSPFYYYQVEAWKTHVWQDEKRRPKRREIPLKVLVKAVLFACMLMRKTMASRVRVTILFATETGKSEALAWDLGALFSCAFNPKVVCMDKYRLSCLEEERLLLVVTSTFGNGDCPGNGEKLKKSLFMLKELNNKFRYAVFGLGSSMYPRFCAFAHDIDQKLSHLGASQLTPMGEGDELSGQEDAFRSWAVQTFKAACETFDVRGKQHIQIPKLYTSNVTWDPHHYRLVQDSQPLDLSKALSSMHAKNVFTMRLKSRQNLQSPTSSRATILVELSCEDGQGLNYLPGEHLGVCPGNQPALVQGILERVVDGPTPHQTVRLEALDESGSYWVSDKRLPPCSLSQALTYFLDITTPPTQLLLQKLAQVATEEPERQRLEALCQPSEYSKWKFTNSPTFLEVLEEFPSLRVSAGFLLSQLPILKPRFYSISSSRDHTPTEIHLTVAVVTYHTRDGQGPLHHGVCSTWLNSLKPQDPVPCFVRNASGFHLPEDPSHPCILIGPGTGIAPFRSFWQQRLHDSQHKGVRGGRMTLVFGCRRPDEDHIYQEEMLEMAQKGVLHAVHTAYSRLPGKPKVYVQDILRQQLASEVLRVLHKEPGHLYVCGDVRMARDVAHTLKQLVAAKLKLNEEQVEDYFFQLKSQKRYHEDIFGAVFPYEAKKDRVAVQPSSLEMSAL
- Test: Inhibition of human recombinant iNOS expressed in baculovirus infected insect sf9 cells assessed as conversion of [3H]-L-arginine into [3H]-L-citrulline by radiometric method
pIC50: −log10 of the molar value.
Property Measured: pIC50

| Molecule | Study Target | Property Measured | Result Value |
| --- | --- | --- | --- |
| N=C(Nc1ccc2c(c1)CCCCN2CCN1CCCC1)c1cccs1 | Nitric oxide synthase, inducible (Homo sapiens, UniProt P35228) | pIC50 | 4.77 |

P. N=C(Nc1ccc2c(c1)CCCCN2C1CCNC1)c1cccs1 (racemic)
Q. CN(C)CCN1CCCCc2cc(NC(=N)c3cccs3)ccc21.Cl.Cl
[in] Hi, I'm comparing P with Q and wondering which one has the bigger number for pIC50. Any idea? Please reply using the label of the selected record.
[out] Q
